Target: T1, human CD8αα homodimer, recombinant protein (Acro Biosystems) (human, UniProt P01732 22-182)
T1 construct: also called CD8αα antigen; biotinylated CD8α recombinant protein (CDA-H82E3)
T1 sequence (P01732 22-182 limits assumed): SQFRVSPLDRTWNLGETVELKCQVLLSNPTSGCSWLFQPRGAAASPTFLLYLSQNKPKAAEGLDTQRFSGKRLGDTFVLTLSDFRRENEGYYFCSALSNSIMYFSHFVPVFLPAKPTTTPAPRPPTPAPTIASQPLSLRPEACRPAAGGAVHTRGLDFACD
Experiment: BLI kinetic assay, engineered F(ab') fragment
Outcome Measure: koff

[
  {
    "Binder": "CBD1033.42 disulfide-engineered F(ab') analog (IgG1, truncated P240) (Fab, V domains shown, also called .42 design) VH: QVQLVQSGAEVKKPGASVKVSCKASRYTFTDYNLHWVRQAPGQGLEWMGFIYPYNGGTGYAQKFQGRVTMTVDTSTSTAYMELSSLRSEDTAVYYCARDHRYNEGVSFDYWGQGTTVTVSS VL: DIQLTQSPSSLSASVGDRATITCRASESVDGFGNSFMNWYQQKPGKAPKLLIYLASNLESGVPSRFSGSGSGTDFTLTISSVQPEDFATYYCQQNNEDPYTFGQGTKLEIKR",
    "Data Value": "6.41e-05 s⁻¹"
  }
]
